Listing of entries alongside the reported IC50.
- system-name: UniProt:Q92633
- Sequence (Q92633 whole entry): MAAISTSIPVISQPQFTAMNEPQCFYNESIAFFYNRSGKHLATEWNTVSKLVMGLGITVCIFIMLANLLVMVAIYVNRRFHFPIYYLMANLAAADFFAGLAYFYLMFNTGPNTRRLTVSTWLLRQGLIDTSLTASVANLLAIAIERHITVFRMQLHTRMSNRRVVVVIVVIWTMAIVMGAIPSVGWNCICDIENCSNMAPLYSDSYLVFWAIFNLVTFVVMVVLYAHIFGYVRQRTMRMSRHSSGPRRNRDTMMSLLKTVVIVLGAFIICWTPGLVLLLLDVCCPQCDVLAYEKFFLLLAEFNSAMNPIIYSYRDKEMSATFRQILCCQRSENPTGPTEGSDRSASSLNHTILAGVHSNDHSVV
- run-description: Evaluation of EDG-2 antagonistic activity by monitoring the change of intracellular calcium ion concentration
- measurement-parameters: CHO cells overexpressing human EDG-2 gene; LPA final concentration 100 nM; intracellular calcium ion concentration (Fura2-AM)

| compound | IC50 / nM |
| --- | --- |
| COc1cc(C(=O)C(CCCc2ccccc2)Cc2ccc(Oc3ccccc3C(=O)O)cc2)cc(OC)c1OC (stereo not drawn) | 110 |
| COc1cc(C(=O)N(CCCc2ccccc2)Cc2ccc(CC(=O)O)cc2)cc(OC)c1C | 150 |
| COc1cc(OC)cc(C(=O)N(CCCc2ccccc2)Cc2ccc(Oc3ccccc3C(=O)O)cc2)c1 | 95 |

Where these numbers come from: patent US8124645B2
